Reported MIC values are given for each entry in this list.
Test system: G(−) bacterial strains
experiment: Dilution antimicrobial susceptibility tests (MIC, NCCLS agar dilution / broth dilution)
Format: cell-based, Gram-negative organisms
particulars: strain #34 Pseudomonas aeruginosa, Gen-R; unit assumed

{"columns": ["compound", "unitOfMeasure", "MIC"],
 "data": [
  ["C[C@@H](O)[C@H]1C(=O)N2C(C(=O)O)=C(CN3CC(O)C(NC(=N)N)C3)[C@H](C)[C@H]12 (mixture of isomers)", "µg/mL", 1],
  ["C[C@@H](O)C1C(=O)N2C(C(=O)O)=C(CN3CC(C(N)=O)C3)[C@H](C)C12 (stereo partly shown)", "µg/mL", 4],
  ["CN[C@H]1CCN(CC2=C(C(=O)O)N3C(=O)C([C@@H](C)O)C3[C@H]2C)C1 (stereo partly shown)", "µg/mL", 4],
  ["C[C@@H](O)C1C(=O)N2C(C(=O)O)=C(CN3CC[C@H](NC=N)C3)[C@H](C)C12 (stereo partly shown)", "µg/mL", 2],
  ["C[C@@H](O)C1C(=O)N2C(C(=O)O)=C(CN3CC[C@H](NC(N)=O)C3)[C@H](C)C12 (stereo partly shown)", "µg/mL", 16],
  ["C[C@@H](O)C1C(=O)N2C(C(=O)[O-])=C(C[N+]3(C)CC[C@H](NC(=N)N)C3)[C@H](C)C12 (stereo partly shown)", "µg/mL", 2],
  ["C[C@@H](O)[C@H]1C(=O)N2C(C(=O)O)=C(CN3C[C@@H](O)[C@H](NC(=N)N)C3)[C@H](C)[C@H]12", "µg/mL", 2]
]}
